What T/C was measured for each of the following?
Tested on: L1210 leukemia ip in BDF1 mice, survival T/C
Experiment: NCI In Vivo Anticancer Drug Screen. Data for tumor model L1210 Leukemia (intraperitoneal) in B6D2F1 (BDF1) mice
Settings: endpoint: mean survival time; dose: 100.0 mg/kg/injection; schedule: Q01DX001 (ip); vehicle: saline; higher = longer survival
Toxic doses and inconclusive results are not listed.

Prompt: Can you share its T/C? I mean this compound: Nc1cccc(C(=O)Nc2ccc(S(=O)(=O)F)cc2)c1
Response: 107 % of control

Prompt: Can you share its T/C? I mean this compound: O=C(Nc1ccc(S(=O)(=O)NC2CCCCC2)cc1)OCc1ccccc1
Response: 95 % of control

Prompt: Can you share its T/C? I mean this compound: CC(=O)SC1CC(=O)OC1=O (centres undefined)
Response: 96 % of control

Prompt: Can you share its T/C? I mean this compound: Cc1ccon1
Response: 102 % of control
